meta.source: patent US20250195521A1

Here the recorded pIC50 is given for each entry.
- target_or_system: K-Ras G12C(GMP-PNP) binding to BRAF RBD (Homo sapiens (Human), UniProt P01116+P62937, G12C)
- Sequence (P01116 other isoform, or with tags, fused parts or gaps G12C): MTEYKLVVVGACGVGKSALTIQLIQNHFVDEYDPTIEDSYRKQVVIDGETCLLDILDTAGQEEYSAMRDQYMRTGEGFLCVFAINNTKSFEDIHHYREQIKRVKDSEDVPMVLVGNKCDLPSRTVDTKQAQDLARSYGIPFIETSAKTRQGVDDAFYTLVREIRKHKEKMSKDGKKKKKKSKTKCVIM
- Sequence (P62937 whole entry): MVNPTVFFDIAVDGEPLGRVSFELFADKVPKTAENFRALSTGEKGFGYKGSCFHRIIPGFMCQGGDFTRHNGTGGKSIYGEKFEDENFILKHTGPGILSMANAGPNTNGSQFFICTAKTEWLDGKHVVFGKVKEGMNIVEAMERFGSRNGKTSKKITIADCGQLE
- protocol: Disruption of BRAF RBD interaction with K-Ras (FRET / MOA assay), K-Ras G12C
- Type: biochemical
- experimental_context: read-out: KRAS G12C FRET IC50
pIC50: −log10 of the molar value.

INSERT INTO assay_data (compound_structure, readout_value) VALUES
  ('CCn1c(-c2cccnc2[C@H](C)OC)c2c3cc(ccc31)-c1cc(cc3nc[nH]c13)C[C@H](NC(=O)[C@H](C(C)C)N(C)C(C)=O)C(=O)N1CCC[C@H](N1)C(=O)OCC(C)(C)C2', '7.00 to 8.00'),
  ('CCn1c(-c2cccnc2[C@H](C)OC)c2c3cc(ccc31)-c1csc(n1)C[C@H](NC(=O)[C@H](C(C)C)N(C)C(=O)N1CCC[C@@H](N(C)C)CC1)C(=O)N1CCC[C@H](N1)C(=O)OCC(C)(C)C2', '6.00 to 7.00'),
  ('CCn1c(-c2cccnc2[C@H](C)OC)c2c3cc(ccc31)-c1csc(n1)C[C@H](NC(=O)[C@H](C(C)C)N(C)C(=O)N(C)[C@H]1CCCN(C)C1)C(=O)N1CCC[C@H](N1)C(=O)OCC(C)(C)C2', '6.00 to 7.00');

From here, focus on the item given below.
The recorded pIC50 for entry CCn1c(-c2cccnc2[C@H](C)OC)c2c3cc(ccc31)-c1cc(O)cc(c1)C[C@H](NC(=O)[C@H](C(C)C)N(C)C(=O)[C@H]1OCC[C@H]1c1ccccc1)C(=O)N1CCC[C@H](N1)C(=O)OCC(C)(C)C2 equals > 8.00
